Target Or Test System: Protein kinase C iota type (Homo sapiens);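 note: reported figures are mean inhibition values from the GSK PKIS screen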
Experimental Conditions: at 1 µM
Everything with inhibition lower than 3% is false (0); everything else, including exactly 3%, is true (1).

| Structure Smiles | Assigned Class |
| --- | --- |
| Cn1c(-c2nonc2N)nc2cnccc21 | true (1) |
| N#Cc1ccc2c(-c3ccnc(NC4CC4)n3)c(-c3ccc(F)cc3)nn2c1 | false (0) |
| COc1cc(Nc2ncc(-c3ccccc3)o2)cc(OC)c1 | true (1) |
| Cc1ccc(-c2cc3c(NC(=O)C4CC4)ncnc3o2)cc1 | false (0) |
| CCCNc1cccc(-n2ncc3c(N/N=C/c4ccncc4)ncnc32)c1 | true (1) |
| CNC(=O)c1ncccc1Nc1nc(Nc2cc3c(cc2OC)CCCN3C(=O)CN(C)C)nc2[nH]ccc12 | false (0) |
| CC(C)c1ccc(-c2cc(-c3c[nH]nc3-c3ccccn3)ccn2)cc1 | false (0) |
| COc1cccc(-n2ncc3c(N/N=C/c4ccc(C(=O)NCCN(C)C)cc4)ncnc32)c1 | true (1) |
| CS(=O)(=O)Nc1ccc(-c2ccc3c(NC(=O)C4CC4)n[nH]c3c2)cc1 | true (1) |
| COC(=O)Nc1nc2ccc(Oc3ccc(NC(=O)Nc4cc(C(F)(F)F)ccc4F)cc3)cc2s1 | false (0) |

---

Target Or Test System: Angiopoietin-1 receptor (Homo sapiens) (UniProt Q02763)
Sequence (Q02763 whole entry): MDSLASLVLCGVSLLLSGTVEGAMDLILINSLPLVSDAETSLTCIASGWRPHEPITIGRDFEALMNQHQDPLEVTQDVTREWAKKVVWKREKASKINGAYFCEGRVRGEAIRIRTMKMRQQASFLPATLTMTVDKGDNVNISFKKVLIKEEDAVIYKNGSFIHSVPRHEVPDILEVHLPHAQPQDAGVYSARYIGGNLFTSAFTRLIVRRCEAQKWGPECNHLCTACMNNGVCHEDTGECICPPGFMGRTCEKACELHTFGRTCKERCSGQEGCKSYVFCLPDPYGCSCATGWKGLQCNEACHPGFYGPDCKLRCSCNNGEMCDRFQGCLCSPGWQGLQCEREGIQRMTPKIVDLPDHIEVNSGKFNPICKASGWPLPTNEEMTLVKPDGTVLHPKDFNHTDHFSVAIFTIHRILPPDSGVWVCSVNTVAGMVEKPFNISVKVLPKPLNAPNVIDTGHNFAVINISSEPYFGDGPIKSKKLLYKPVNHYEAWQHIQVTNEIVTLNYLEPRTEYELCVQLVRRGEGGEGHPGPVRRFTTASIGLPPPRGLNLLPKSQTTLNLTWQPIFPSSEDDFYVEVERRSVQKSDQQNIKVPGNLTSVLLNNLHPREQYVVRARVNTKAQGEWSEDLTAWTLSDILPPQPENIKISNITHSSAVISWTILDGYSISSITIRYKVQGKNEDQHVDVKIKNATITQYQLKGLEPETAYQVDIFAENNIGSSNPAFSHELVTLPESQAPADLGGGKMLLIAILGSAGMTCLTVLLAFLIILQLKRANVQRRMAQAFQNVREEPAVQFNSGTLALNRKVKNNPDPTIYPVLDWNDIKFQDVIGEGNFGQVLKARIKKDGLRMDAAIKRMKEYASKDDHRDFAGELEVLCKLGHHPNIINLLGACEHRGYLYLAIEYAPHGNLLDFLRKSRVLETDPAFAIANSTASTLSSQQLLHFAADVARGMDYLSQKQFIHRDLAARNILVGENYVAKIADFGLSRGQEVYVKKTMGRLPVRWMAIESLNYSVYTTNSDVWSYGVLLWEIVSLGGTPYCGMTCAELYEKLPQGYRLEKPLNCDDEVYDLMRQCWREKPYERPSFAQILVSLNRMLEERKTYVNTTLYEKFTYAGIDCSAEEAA
Experimental Conditions: at 0.1 µM
Description: GSK_PKIS: TIE2 mean inhibition at 0.1 uM [Nanosyn]

| Compound | inhibition, % |
| --- | --- |
| CS(=O)(=O)Nc1ccc(-c2cc(-c3ccccc3)cc(C(N)=O)c2N)cc1 | 0.34 |
| CC1(C)CC(n2cnc(-c3ccc(F)cc3)c2-c2ccnc(N)n2)CC(C)(C)N1 | 1.61 |
| COc1cc2c(cc1Nc1nc(Nc3cccc(F)c3C(N)=O)c3cc[nH]c3n1)N(C(=O)CN1CCN(C(C)C)CC1)CC2 | 4.46 |
| COc1ccc(-c2nn3ncccc3c2-c2ccnc(Nc3ccc(F)c(F)c3)n2)cc1 | 3.17 |
| NC(=O)c1ccc2c(-c3ccnc(NCCCO)n3)c(-c3ccc(F)cc3)nn2c1 | 5.27 |
| O=C1Nc2ccccc2/C1=C1\CCc2cc(O)ccc21 | 4.53 |
| NS(=O)(=O)c1ccc(N/N=C2\C(=O)Nc3cccc(CCc4ccncc4)c32)cc1 | 0.8 |
| COc1cc(N2CCN(C(C)C)CC2)ccc1Nc1nc(Nc2cccc(F)c2C(=O)O)c2cc[nH]c2n1 | 2.04 |
| CC1=C(C(=O)Nc2ccc3[nH]nc(C)c3c2)C(c2ccc(C(F)(F)F)cc2)CC(=O)N1 (stereo not drawn) | 1.71 |
| OCCCNc1nccc(-c2c(-c3ccc(F)cc3)nn3cc(C(F)(F)F)ccc23)n1 | 2.38 |
| COc1cc(Nc2ncc(-c3ccccc3)o2)cc(OC)c1 | 3.94 |
| CS(=O)(=O)CCNCc1ccoc1-c1ccc2ncnc(Nc3ccc(OCc4ccccc4)cc3)c2c1 | 1.86 |
| CCN1CCC(C(=O)Nc2n[nH]c3nnc(-c4cccc(F)c4F)cc23)CC1 | 1.84 |
| Cc1ccc(-c2cc3c(NC(=O)C4CC4)ncnc3o2)cc1 | 3.09 |
| O=C(O[C@H]1CN[C@H](C#Cc2cc3ncnc(Nc4ccc(OCc5cccc(F)c5)c(Cl)c4)c3s2)C1)N1CCOCC1 | 2.8 |
| N#Cc1cccc(Nc2ncc(-c3ccccc3)o2)c1 | 0.48 |
| Cn1c(-c2nonc2N)nc2cnccc21 | 1.46 |
| CC1=C(C(=O)Nc2ccc3[nH]ncc3c2)C(c2ccc(F)cc2)N=C(c2ccc(C(F)(F)F)nc2)N1 (stereo not drawn) | 2.65 |
